biological target: Adrenergic receptor alpha-1 (Homo sapiens, UniProt P35348+P25100+P35368); assay: Inhibitory activity against Adrenergic alpha-1 receptor; type: protein assay
Output Fulfilled for records whose Ki is lower than 4 nM, Not fulfilled for records at or above 4 nM.

Cc1ccccc1N1CCN(CCn2cnc3sc4c(c3c2=O)CCN(C)C4)CC1; Fulfilled
COc1ccc2ccccc2c1N1CCN(CCn2cnc3sc4c(c3c2=O)CCN(C)C4)CC1; Not fulfilled

Say whether its Ki is strictly beneath 4 nM. Entry: `CC(C)Oc1ccccc1N1CCN(CCn2cnc3sc4c(c3c2=O)CCN(C)C4)CC1`
Fulfilled

Say whether its Ki is strictly beneath 4 nM. Entry: `COc1cc(Cl)c(Cl)cc1N1CCN(CCn2cnc3sc4c(c3c2=O)CCN(C)C4)CC1`
Fulfilled

Say whether its Ki is strictly beneath 4 nM. Entry: `COc1ccccc1N1CCN(CCn2cnc3sc4c(c3c2=O)CCN(C)C4)CC1`
Fulfilled

Say whether its Ki is strictly beneath 4 nM. Entry: `CN1CCc2c(sc3ncn(CCN4CCN(c5ccccc5Oc5ccccc5)CC4)c(=O)c23)C1`
Fulfilled

Say whether its Ki is strictly beneath 4 nM. Entry: `CN1CCc2c(sc3ncn(CCN4CCN(c5ccnc6ccccc56)CC4)c(=O)c23)C1`
Not fulfilled

Say whether its Ki is strictly beneath 4 nM. Entry: `COc1c(Cl)cc(Cl)cc1N1CCN(CCn2cnc3sc4c(c3c2=O)CCN(C)C4)CC1`
Not fulfilled

Say whether its Ki is strictly beneath 4 nM. Entry: `CN1CCc2c(sc3ncn(CCN4CCN(c5ccc6ccccc6n5)CC4)c(=O)c23)C1`
Not fulfilled

Say whether its Ki is strictly beneath 4 nM. Entry: `COc1ccc(OC)c(N2CCN(CCn3cnc4sc5c(c4c3=O)CCN(C)C5)CC2)c1`
Not fulfilled

Say whether its Ki is strictly beneath 4 nM. Entry: `CN1CCc2c(sc3ncn(CCN4CCN(c5ncnc6ccccc56)CC4)c(=O)c23)C1`
Not fulfilled

Say whether its Ki is strictly beneath 4 nM. Entry: `CN1CCc2c(sc3ncn(CCN4CCN(c5cncc6ccccc56)CC4)c(=O)c23)C1`
Not fulfilled

----------
molecular target: 5-hydroxytryptamine receptor 7 (Homo sapiens, UniProt P34969)
Sequence (P34969 whole entry): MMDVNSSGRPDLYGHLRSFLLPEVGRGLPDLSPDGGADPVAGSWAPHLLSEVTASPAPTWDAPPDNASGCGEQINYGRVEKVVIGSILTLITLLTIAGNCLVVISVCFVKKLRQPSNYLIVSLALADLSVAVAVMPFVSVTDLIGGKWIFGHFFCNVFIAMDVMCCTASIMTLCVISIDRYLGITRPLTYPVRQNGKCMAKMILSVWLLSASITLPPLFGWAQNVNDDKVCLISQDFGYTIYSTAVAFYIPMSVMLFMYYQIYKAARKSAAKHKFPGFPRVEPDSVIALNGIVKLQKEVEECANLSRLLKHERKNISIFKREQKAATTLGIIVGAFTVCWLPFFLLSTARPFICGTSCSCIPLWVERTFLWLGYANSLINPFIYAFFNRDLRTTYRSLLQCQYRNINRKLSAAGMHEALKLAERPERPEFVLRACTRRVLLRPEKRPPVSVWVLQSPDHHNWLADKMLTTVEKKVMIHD
result type: pKi
Answers are plain numbers, as −log10 of the molar value.

CN1CCc2c(sc3ncn(CCN4CCN(c5ccnc6ccccc56)CC4)c(=O)c23)C1; 5.35

Give the reported pKi for `CN1CCc2c(sc3ncn(CCN4CCN(c5cncc6ccccc56)CC4)c(=O)c23)C1` (system: 5-hydroxytryptamine receptor 7 (Homo sapiens, UniProt P34969)).
6.28

----------
biological target: 5-hydroxytryptamine receptor 1A (Homo sapiens, UniProt P08908); assay: Displacement of [35S]GTP-gamma-S from human recombinant 5HT1A receptor
Sequence (P08908 whole entry): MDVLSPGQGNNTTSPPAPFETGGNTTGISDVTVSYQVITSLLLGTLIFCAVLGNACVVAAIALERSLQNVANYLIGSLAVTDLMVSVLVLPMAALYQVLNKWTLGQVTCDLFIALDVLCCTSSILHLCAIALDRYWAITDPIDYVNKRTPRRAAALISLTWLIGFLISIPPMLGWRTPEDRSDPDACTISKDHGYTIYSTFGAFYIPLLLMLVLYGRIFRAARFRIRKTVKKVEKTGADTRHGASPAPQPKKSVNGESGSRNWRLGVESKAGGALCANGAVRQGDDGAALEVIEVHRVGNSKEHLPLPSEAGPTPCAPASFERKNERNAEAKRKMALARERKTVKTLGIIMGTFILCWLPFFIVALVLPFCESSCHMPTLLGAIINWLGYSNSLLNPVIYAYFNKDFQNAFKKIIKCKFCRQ
result type: Ki (nM)
Numbers only, in nM.

CN1CCc2c(sc3ncn(CCN4CCN(c5ccccc5OCc5ccccc5)CC4)c(=O)c23)C1; 1.9
CC(C)Oc1ccccc1N1CCN(CCn2cnc3sc4c(c3c2=O)CCN(C)C4)CC1; 0.7
COc1ccccc1N1CCN(CCn2cnc3sc4c(c3c2=O)CCN(C)C4)CC1; 0.7
CN1CCc2c(sc3ncn(CCN4CCN(c5ccc6ccccc6n5)CC4)c(=O)c23)C1; 9.1
COc1ccc(-c2ccccc2)cc1N1CCN(CCn2cnc3sc4c(c3c2=O)CCN(C)C4)CC1; 429

Look at each compound and report its Ki.
1. CN1CCc2c(sc3ncn(CCN4CCN(c5cccc6c5OCC6)CC4)c(=O)c23)C1
2. COc1cc(Cl)ccc1N1CCN(CCn2cnc3sc4c(c3c2=O)CCN(C)C4)CC1
3. CN1CCc2c(sc3ncn(CCN4CCN(c5ccccc5C#N)CC4)c(=O)c23)C1
4. CN1CCc2c(sc3ncn(CCN4CCN(c5cccc6cnccc56)CC4)c(=O)c23)C1

0.6
18.8
2.5
0.9
